Catalogue of Kd readings, one per entry.
- Assayed Target: recombinant H1-HA (D18-I530), A/California/06/2009 (H1N1)pdm09 (Influenza A virus A/California/06/2009 …, UniProt C3W5S1, strain)
- Method: SPR
- Stated Conditions: both partners purified
Respond with the bare value in nM.

Worked cases, Kd given:
R2a-B9 (VHH, source: E. coli WK6 periplasm, purified (Talon IMAC, Superdex 75 SEC)) VHH: QVQLVESGGGLVQPGGSLRLSCAASGSAFSINAMGWYRQAPGEEREFVAAITAGGNTYYADSAKARFTISRDNAKNMLYLQMNSLKPEDTAMYYCAATKAFGIATITADYELWGQGTQVTVSS
0.16
R2a-G8 (VHH, source: E. coli WK6 periplasm, purified (Talon IMAC, Superdex 75 SEC)) VHH: QLQLAESGGGLVQAGGSLRLSCAASGSTLNNNAIGWFRQAPGKEREGVSCMNSRDGTTNYADSVKGRFTISRDVAKNTVYLQMNSLKPEDTAVYFCAVKGFAPFLIGCPWGKAEYDYWGQGTQVTVSS
3.55
R1a-F5 (VHH, source: E. coli WK6 periplasm, purified (Talon IMAC, Superdex 75 SEC)) VHH: QLQLVESGGGLVQVGGSLRLSCAASGFPFDGYAIAWFRQAPGKEREGVSCRASDGNTYYAESLKGRLTMSTDNAKNTVYLQMNSLKPEDTAVYYCAAASWVASLWSPSEYDYWGQGTQVTVSS
10

Below: the item to evaluate.
Sure, the documented Kd for R1a-B6 (VHH, also called R1a-B6 monovalent; source: E. coli WK6 periplasm, purified (Talon IMAC, Superdex 75 SEC)) VHH: QVQLVESGGGLVQPGGSLRLSCAASGSFFSRYRMGWYRQAPGEQRELVASIAYDGSTSYADPVKGRFTISRDNANTVHLQMYSLKPDDTAVYYCNLDPPGILYWGQGTQVTVSS is 0.86
